- MEASUREMENT_TARGET: Myosin light chain kinase family member 4 (Homo sapiens)
- Sequence (whole entry): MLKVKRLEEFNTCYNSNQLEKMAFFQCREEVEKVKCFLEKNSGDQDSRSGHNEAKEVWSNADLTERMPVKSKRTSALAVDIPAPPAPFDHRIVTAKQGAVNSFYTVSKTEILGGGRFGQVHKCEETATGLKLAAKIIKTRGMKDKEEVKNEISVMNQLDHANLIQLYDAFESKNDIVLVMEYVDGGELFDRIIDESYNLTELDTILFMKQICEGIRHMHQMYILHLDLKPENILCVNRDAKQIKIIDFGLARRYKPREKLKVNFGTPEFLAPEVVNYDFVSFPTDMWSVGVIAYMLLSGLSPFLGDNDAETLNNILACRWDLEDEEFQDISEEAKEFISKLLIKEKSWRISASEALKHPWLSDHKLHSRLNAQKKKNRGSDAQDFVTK
- PROTOCOL_SUMMARY: Binding affinity to SGK085 assessed as change in thermal denaturation at 10 uM by thermal stability shift assay

- COMPOUND: "CC(=O)NCC1c2c(n(C)c3c(Cl)c(Cl)ccc23)C(=O)NC1(C)C (racemic)"
  ΔTm, °C: 0.6
- COMPOUND: "Cn1c2c(c3ccc(Cl)c(Cl)c31)C(C#N)C1(CCNCC1)NC2=O (racemic)"
  ΔTm, °C: 3.5
- COMPOUND: "N#CC1c2c([nH]c3c(Cl)c(Cl)ccc23)C(=O)NC12CCCCC2 (racemic)"
  ΔTm, °C: 1.2
- COMPOUND: "Cn1c2c(c3ccccc31)C(C#N)C(C)(C)NC2=O (stereo not given)"
  ΔTm, °C: 1.7
- COMPOUND: "Cn1c2c(c3ccc(Cl)c(Cl)c31)C(C#N)C(C)(C)NC2=O (stereo not given)"
  ΔTm, °C: 2

----------
- MEASUREMENT_TARGET: AP2-associated protein kinase 1 (Homo sapiens) (UniProt Q2M2I8)
- Sequence (Q2M2I8 whole entry, looked up): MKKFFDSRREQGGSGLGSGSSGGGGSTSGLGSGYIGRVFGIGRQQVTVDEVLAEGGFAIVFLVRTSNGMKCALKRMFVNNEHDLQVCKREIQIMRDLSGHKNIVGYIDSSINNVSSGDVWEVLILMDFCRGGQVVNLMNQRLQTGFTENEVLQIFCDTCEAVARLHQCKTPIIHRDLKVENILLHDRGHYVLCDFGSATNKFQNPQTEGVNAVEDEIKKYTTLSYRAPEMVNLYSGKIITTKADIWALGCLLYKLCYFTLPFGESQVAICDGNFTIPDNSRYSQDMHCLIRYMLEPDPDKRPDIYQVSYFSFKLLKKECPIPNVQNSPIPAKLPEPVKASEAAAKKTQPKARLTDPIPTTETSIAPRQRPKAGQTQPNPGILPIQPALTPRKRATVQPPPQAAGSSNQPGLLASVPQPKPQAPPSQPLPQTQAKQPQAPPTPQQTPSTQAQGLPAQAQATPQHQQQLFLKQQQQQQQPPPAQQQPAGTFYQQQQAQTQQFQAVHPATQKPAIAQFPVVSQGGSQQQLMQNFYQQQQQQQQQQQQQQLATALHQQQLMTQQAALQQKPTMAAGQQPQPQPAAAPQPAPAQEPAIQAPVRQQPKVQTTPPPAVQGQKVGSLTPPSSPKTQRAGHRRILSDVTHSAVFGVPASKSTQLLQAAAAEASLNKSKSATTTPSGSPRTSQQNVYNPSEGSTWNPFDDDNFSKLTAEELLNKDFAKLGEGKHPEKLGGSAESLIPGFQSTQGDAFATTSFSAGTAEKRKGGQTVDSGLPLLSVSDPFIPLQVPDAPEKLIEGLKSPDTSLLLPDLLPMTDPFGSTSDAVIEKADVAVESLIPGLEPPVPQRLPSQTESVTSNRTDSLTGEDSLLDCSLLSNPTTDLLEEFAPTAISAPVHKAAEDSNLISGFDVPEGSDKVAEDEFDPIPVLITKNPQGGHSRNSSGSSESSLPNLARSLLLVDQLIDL
- PROTOCOL_SUMMARY: Binding affinity to AAK1 assessed as change in thermal denaturation at 10 uM by thermal stability shift assay
Classify by measured ΔTm: Criterion met if it is equal to or exceeds 2 °C, Criterion not met if it is smaller.

- MOLECULE: "CCC1(CC)NC(=O)c2c(c3ccc(Cl)c(Cl)c3n2C)C1C#N (configuration not stated)"
  QUALITATIVE_LABEL: "Criterion not met"
- MOLECULE: "Cn1c2c(c3ccc(Cl)c(Cl)c31)C(C#N)C1(CCOCC1)NC2=O (configuration not stated)"
  QUALITATIVE_LABEL: "Criterion met"
- MOLECULE: "Cn1c2c(c3ccc(Cl)c(Cl)c31)C(C#N)C1(CCCC1)NC2=O (configuration not stated)"
  QUALITATIVE_LABEL: "Criterion not met"
- MOLECULE: "Cn1c2c(c3ccc(Cl)c(Cl)c31)C(CN)C(C)(C)NC2=O (racemic)"
  QUALITATIVE_LABEL: "Criterion not met"
- MOLECULE: "Cn1c2c(Cl)c(Cl)ccc2c2cn[nH]c(=O)c21"
  QUALITATIVE_LABEL: "Criterion met"
- MOLECULE: "Cn1c2c(c3ccc(Cl)c(Cl)c31)C(C#N)C1(CCN(C(=O)OC(C)(C)C)CC1)NC2=O (racemic)"
  QUALITATIVE_LABEL: "Criterion not met"
- MOLECULE: "CC1(C)NC(=O)c2[nH]c3c(Cl)c(Cl)ccc3c2C1C#N (configuration not stated)"
  QUALITATIVE_LABEL: "Criterion not met"
- MOLECULE: "Cn1c2c(c3ccccc31)C(C#N)C(C)(C)NC2=O (configuration not stated)"
  QUALITATIVE_LABEL: "Criterion not met"
- MOLECULE: "Cn1c2c(c3ccc(Cl)c(Cl)c31)C(C#N)C1(CCNCC1)NC2=O (racemic)"
  QUALITATIVE_LABEL: "Criterion not met"
- MOLECULE: "CC(=O)NCC1c2c(n(C)c3c(Cl)c(Cl)ccc23)C(=O)NC1(C)C (racemic)"
  QUALITATIVE_LABEL: "Criterion not met"
- MOLECULE: "CCN1CCC2(CC1)NC(=O)c1c(c3ccc(Cl)c(Cl)c3n1C)C2C#N (racemic)"
  QUALITATIVE_LABEL: "Criterion not met"
- MOLECULE: "Cn1c2c(c3ccc(Cl)c(Cl)c31)C(C#N)C1(CCCCC1)NC2=O (racemic)"
  QUALITATIVE_LABEL: "Criterion not met"
- MOLECULE: "Cn1c2c(c3ccc(Cl)c(Cl)c31)C(C#N)C(C)(C)NC2=O (configuration not stated)"
  QUALITATIVE_LABEL: "Criterion met"
- MOLECULE: "Cn1c2c(Cl)c(Cl)ccc2c2cc[nH]c(=O)c21"
  QUALITATIVE_LABEL: "Criterion met"
- MOLECULE: "CN1CCC2(CC1)NC(=O)c1c(c3ccc(Cl)c(Cl)c3n1C)C2C#N (racemic)"
  QUALITATIVE_LABEL: "Criterion not met"
- MOLECULE: "N#CC1c2c([nH]c3c(Cl)c(Cl)ccc23)C(=O)NC12CCCCC2 (racemic)"
  QUALITATIVE_LABEL: "Criterion met"

The values you see were collected from ChEMBL document CHEMBL1944596.
